target: UniProtKB Q99572; test: Pore permeation assay (YO PRO dye uptake); conditions: HEK293 transfected with human P2X7 receptor, BzATP 10 uM, read-out: hP2X7 IC50
Sequence (Q99572 whole entry): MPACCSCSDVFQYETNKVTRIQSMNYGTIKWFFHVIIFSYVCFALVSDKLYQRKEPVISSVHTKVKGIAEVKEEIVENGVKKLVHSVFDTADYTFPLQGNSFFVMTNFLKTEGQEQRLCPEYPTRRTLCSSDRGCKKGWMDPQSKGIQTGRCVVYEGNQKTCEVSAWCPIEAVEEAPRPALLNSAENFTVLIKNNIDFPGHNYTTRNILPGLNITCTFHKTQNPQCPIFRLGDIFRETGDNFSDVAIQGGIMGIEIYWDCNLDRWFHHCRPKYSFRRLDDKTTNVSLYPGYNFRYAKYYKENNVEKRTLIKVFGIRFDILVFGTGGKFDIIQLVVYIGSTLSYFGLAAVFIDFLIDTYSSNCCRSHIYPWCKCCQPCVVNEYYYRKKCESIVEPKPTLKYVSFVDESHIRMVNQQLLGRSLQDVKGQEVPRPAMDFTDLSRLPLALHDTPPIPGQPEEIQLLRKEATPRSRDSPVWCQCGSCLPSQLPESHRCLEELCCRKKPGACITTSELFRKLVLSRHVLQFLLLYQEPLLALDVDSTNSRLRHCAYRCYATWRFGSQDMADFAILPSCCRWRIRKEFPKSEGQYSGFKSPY
measurement_type: IC50

stdin: Retrieve IC50 on UniProtKB Q99572; query CC(O)(CNC(=O)c1cn(C2CCOC2)c2cccc(Cl)c12)C1CCCC1 (stereo not shown)
stdout: > 1000 nM
